Attribution: BigSolDB 2.1

# run_conditions: in n-propanol, 308.15 K
property_label: solubility (mole fraction)
The answer should be a number; do not append a unit.

Give the measured solubility (mole fraction) of `NC(=O)c1ncn([C@@H]2O[C@H](CO)[C@@H](O)[C@H]2O)n1` .
0.000455

====

# run_conditions: in water, 313.15 K
property_label: solubility (mole fraction)

I have this compound here, `NC(=O)c1ncn([C@@H]2O[C@H](CO)[C@@H](O)[C@H]2O)n1` , and I need its recorded solubility (mole fraction).
0.0335

====

# run_conditions: in 1,4-dioxane, 298.15 K
property_label: solubility (mole fraction)
Reply briefly: the number, and no unit.

Fill blank: measured solubility (mole fraction) of the compound `NC(=O)c1ncn([C@@H]2O[C@H](CO)[C@@H](O)[C@H]2O)n1` is ____.
0.000203

====

# run_conditions: in methanol, 318.15 K
property_label: solubility (mole fraction)
Just the number, please, no unit after it.

Quick one: solubility (mole fraction) for `NC(=O)c1ncn([C@@H]2O[C@H](CO)[C@@H](O)[C@H]2O)n1` ?
0.00379

====

# run_conditions: in n-propanol, 313.15 K
property_label: solubility (mole fraction)
Write the number on its own, no unit after it.

Which solubility (mole fraction) is listed for `NC(=O)c1ncn([C@@H]2O[C@H](CO)[C@@H](O)[C@H]2O)n1` ?
0.000617

====

# run_conditions: in acetonitrile, 278.15 K
property_label: solubility (mole fraction)
Kindly provide the number alone.

Look up solubility (mole fraction): `NC(=O)c1ncn([C@@H]2O[C@H](CO)[C@@H](O)[C@H]2O)n1`
8.6e-06

====

# run_conditions: in water, 283.15 K
property_label: solubility (mole fraction)
Form: value (number only, do not type unit).

Quick one: solubility (mole fraction) for `NC(=O)c1ncn([C@@H]2O[C@H](CO)[C@@H](O)[C@H]2O)n1` ?
0.00775

====

# run_conditions: in acetonitrile, 313.15 K
property_label: solubility (mole fraction)
No unit in the answer, please; the number alone is enough.

Sample `NC(=O)c1ncn([C@@H]2O[C@H](CO)[C@@H](O)[C@H]2O)n1` — what was its solubility (mole fraction)?
0.00011

====

# run_conditions: in water, 298.15 K
property_label: solubility (mole fraction)
Provide a numeric answer; units are not to be included.

Reported solubility (mole fraction), compound `NC(=O)c1ncn([C@@H]2O[C@H](CO)[C@@H](O)[C@H]2O)n1` : ____
0.0174

====

# run_conditions: in water, 288.15 K
property_label: solubility (mole fraction)

Give the measured solubility (mole fraction) of `NC(=O)c1ncn([C@@H]2O[C@H](CO)[C@@H](O)[C@H]2O)n1` .
0.0104

====

# run_conditions: in 1,4-dioxane, 308.15 K
property_label: solubility (mole fraction)
Lab note: jot down the number only; don't add units.

If you can, please state the reported solubility (mole fraction) value of `NC(=O)c1ncn([C@@H]2O[C@H](CO)[C@@H](O)[C@H]2O)n1` .
0.000387

====

# run_conditions: in n-propanol, 288.15 K
property_label: solubility (mole fraction)
Just the number, please.

Could you tell me which solubility (mole fraction) is on file for `NC(=O)c1ncn([C@@H]2O[C@H](CO)[C@@H](O)[C@H]2O)n1` ?
0.000122

====

# run_conditions: in acetonitrile, 288.15 K
property_label: solubility (mole fraction)

Return reported solubility (mole fraction); argument: `NC(=O)c1ncn([C@@H]2O[C@H](CO)[C@@H](O)[C@H]2O)n1`
1.94e-05

====

# run_conditions: in 1,4-dioxane, 288.15 K
property_label: solubility (mole fraction)

I'd like to know its solubility (mole fraction). The compound in question is `NC(=O)c1ncn([C@@H]2O[C@H](CO)[C@@H](O)[C@H]2O)n1`
0.000101

====

# run_conditions: in n-propanol, 298.15 K
property_label: solubility (mole fraction)
The answer should be a number; do not append a unit.

Please look up its solubility (mole fraction): `NC(=O)c1ncn([C@@H]2O[C@H](CO)[C@@H](O)[C@H]2O)n1`
0.000242

====

# run_conditions: in 1,4-dioxane, 283.15 K
property_label: solubility (mole fraction)
Give your answer as a number; write no unit.

Please look up its solubility (mole fraction): `NC(=O)c1ncn([C@@H]2O[C@H](CO)[C@@H](O)[C@H]2O)n1`
7.06e-05

====

# run_conditions: in methanol, 308.15 K
property_label: solubility (mole fraction)

Could you share which solubility (mole fraction) value was measured for `NC(=O)c1ncn([C@@H]2O[C@H](CO)[C@@H](O)[C@H]2O)n1` ?
0.00223

====

# run_conditions: in 1,4-dioxane, 313.15 K
property_label: solubility (mole fraction)
Number only, no unit.

Which solubility (mole fraction) value belongs to `NC(=O)c1ncn([C@@H]2O[C@H](CO)[C@@H](O)[C@H]2O)n1` ?
0.000527

====

# run_conditions: in methanol, 283.15 K
property_label: solubility (mole fraction)
Kindly provide the number alone.

If you can, please state the reported solubility (mole fraction) value of `NC(=O)c1ncn([C@@H]2O[C@H](CO)[C@@H](O)[C@H]2O)n1` .
0.000517

====

# run_conditions: in acetonitrile, 293.15 K
property_label: solubility (mole fraction)
Reply with just the number.

May I ask what solubility (mole fraction) has been recorded for `NC(=O)c1ncn([C@@H]2O[C@H](CO)[C@@H](O)[C@H]2O)n1` ?
2.77e-05

====

# run_conditions: in water, 303.15 K
property_label: solubility (mole fraction)
// no unit, no text: just the number

What solubility (mole fraction) value was documented for this molecule, `NC(=O)c1ncn([C@@H]2O[C@H](CO)[C@@H](O)[C@H]2O)n1` ?
0.0219

====

# run_conditions: in methanol, 288.15 K
property_label: solubility (mole fraction)

I would be grateful if you could share the reported solubility (mole fraction) for `NC(=O)c1ncn([C@@H]2O[C@H](CO)[C@@H](O)[C@H]2O)n1` .
0.000711

====

# run_conditions: in n-propanol, 293.15 K
property_label: solubility (mole fraction)
Respond using a number only.

May I ask what solubility (mole fraction) has been recorded for `NC(=O)c1ncn([C@@H]2O[C@H](CO)[C@@H](O)[C@H]2O)n1` ?
0.000171

====

# run_conditions: in methanol, 278.15 K
property_label: solubility (mole fraction)

Item `NC(=O)c1ncn([C@@H]2O[C@H](CO)[C@@H](O)[C@H]2O)n1` has what recorded solubility (mole fraction)?
0.000379

====

# run_conditions: in methanol, 298.15 K
property_label: solubility (mole fraction)
Enter a number only.

Fill in the blank: the reported solubility (mole fraction) of `NC(=O)c1ncn([C@@H]2O[C@H](CO)[C@@H](O)[C@H]2O)n1` is ____.
0.00128

====

# run_conditions: in water, 318.15 K
property_label: solubility (mole fraction)
The answer should be a number; do not append a unit.

Value lookup for solubility (mole fraction); key = `NC(=O)c1ncn([C@@H]2O[C@H](CO)[C@@H](O)[C@H]2O)n1`
0.0405

====

# run_conditions: in methanol, 313.15 K
property_label: solubility (mole fraction)

Give its solubility (mole fraction) value. Item: `NC(=O)c1ncn([C@@H]2O[C@H](CO)[C@@H](O)[C@H]2O)n1`
0.00293

====

# run_conditions: in n-propanol, 283.15 K
property_label: solubility (mole fraction)
Please reply with the value in numeric form only.

Please look up its solubility (mole fraction): `NC(=O)c1ncn([C@@H]2O[C@H](CO)[C@@H](O)[C@H]2O)n1`
8.69e-05

====

# run_conditions: in 1,4-dioxane, 293.15 K
property_label: solubility (mole fraction)
Just the number, please, no unit attached.

Sample `NC(=O)c1ncn([C@@H]2O[C@H](CO)[C@@H](O)[C@H]2O)n1` — what was its solubility (mole fraction)?
0.000145

====

# run_conditions: in acetonitrile, 308.15 K
property_label: solubility (mole fraction)
Just the number, please.

# solubility (mole fraction) lookup, item `NC(=O)c1ncn([C@@H]2O[C@H](CO)[C@@H](O)[C@H]2O)n1`
7.88e-05

====

# run_conditions: in methanol, 303.15 K
property_label: solubility (mole fraction)
Enter the number alone.

Entry `NC(=O)c1ncn([C@@H]2O[C@H](CO)[C@@H](O)[C@H]2O)n1` : reported solubility (mole fraction) = ?
0.00171

====

# run_conditions: in acetonitrile, 298.15 K
property_label: solubility (mole fraction)
Response field accepts a number only; no unit should be typed.

What value of measured solubility (mole fraction) is listed for `NC(=O)c1ncn([C@@H]2O[C@H](CO)[C@@H](O)[C@H]2O)n1` ?
3.96e-05

====

# run_conditions: in n-propanol, 278.15 K
property_label: solubility (mole fraction)
Lab note: record the figure alone, no unit after it.

For the compound shown here, `NC(=O)c1ncn([C@@H]2O[C@H](CO)[C@@H](O)[C@H]2O)n1` , give the reported solubility (mole fraction).
5.99e-05
